- METHOD DESCRIPTION: Cytotoxicity against human HuH7 cells
- Type: cell-based, Huh-7
For each of the compounds below, state its CC50.

Entry "CO[P@@]1(=O)OC[C@H]2O[C@@H](n3cnc4c(O)nc(N)nc43)[C@](C)(F)[C@@H]2O1" — recorded CC50 = > 65 µM

Value of measured CC50 for the entry CC(C)C(=O)OC[C@H]1O[C@@H](n2ccc(N)nc2=O)[C@](C)(F)[C@@H]1OC(=O)C(C)C [MERICITABINE] : > 100 µM

Item: CCCOc1nc(N)nc2c1ncn2[C@@H]1O[C@@H]2COP(=O)(OC)O[C@H]2[C@@]1(C)F (stereo partly specified) | CC50: > 30 µM

Looking up CCOc1nc(N)nc2c1ncn2[C@@H]1O[C@@H]2COP(=O)(OC)O[C@H]2[C@@]1(C)F (stereo partly specified) , I found its CC50 recorded as > 30 µM

GET /value?item= CCCNc1nc(N)nc2c1ncn2[C@@H]1O[C@@H]2COP(=O)(OC)O[C@H]2[C@@]1(C)F (stereo partly specified) &field=CC50 returns > 30 µM

Note to self: CC50 recorded for C[C@@]1(F)[C@H](O)[C@@H](COP(=O)(O)OP(=O)(O)OP(=O)(O)O)O[C@H]1n1cnc2c(=O)[nH]c(N)nc21 [PSI-352666] was > 100 µM

----------
- METHOD DESCRIPTION: Cytotoxicity against human HepG2 cells
- Assay type: cell-based
PROPERTY NAME: CC50

Given item CCOc1nc(N)nc2c1ncn2[C@@H]1O[C@@H]2CO[P@](=O)(OC(C)C)O[C@H]2[C@@]1(C)F (stereo in doubt; 24a) , the value recorded as its CC50 is > 100 µM

Note to self: CC50 recorded for COP1(=O)OC[C@H]2O[C@@H](n3cnc4c(N5CCC5)nc(N)nc43)[C@](C)(F)[C@@H]2O1 (some centres undefined) was > 100 µM

Just so you know, measured CC50 for CCCNc1nc(N)nc2c1ncn2[C@@H]1O[C@@H]2COP(=O)(OC)O[C@H]2[C@@]1(C)F (some centres undefined) came out at > 100 µM

CC50 for CCOc1nc(N)nc2c1ncn2[C@@H]1O[C@@H]2COP(=O)(OC)O[C@H]2[C@@]1(C)F (some centres undefined) is 95 µM

----------
- METHOD DESCRIPTION: Mitochondrial toxicity in human HepG2 cells
- Type: cell-based
Assignment: determine reported CC50 for the given molecules.

Note to self: CC50 recorded for COP1(=O)OC[C@H]2O[C@@H](n3cnc4c(N5CCC5)nc(N)nc43)[C@](C)(F)[C@@H]2O1 (some centres undefined) was > 100 µM

Value of measured CC50 for the entry CCCNc1nc(N)nc2c1ncn2[C@@H]1O[C@@H]2COP(=O)(OC)O[C@H]2[C@@]1(C)F (some centres undefined) : 14 µM

Noted for CCOc1nc(N)nc2c1ncn2[C@@H]1O[C@@H]2CO[P@](=O)(OC(C)C)O[C@H]2[C@@]1(C)F (stereo in doubt; 24a) : its CC50 reads > 100 µM

For CCOc1nc(N)nc2c1ncn2[C@@H]1O[C@@H]2COP(=O)(OC)O[C@H]2[C@@]1(C)F (some centres undefined) the molecule record lists CC50 as > 100 µM
